Assay: Plasma pharmacokinetics of SHR9146 in mice (LC-MS/MS, non-compartmental analysis)
Assay type: in vivo, ICR mice
Conditions: both sexes, ICR, mouse, plasma, oral, 80 mg/kg, 80 mg/kg i.g. single; 2 h; read-out: plasma drug concentration, mean (n=6)
Assay Metric: concentration at 2 h (ng/mL)
Answers are plain numbers, in ng/mL.

(Q) Bench note: what concentration at 2 h did "OCCn1cc(-c2ccc(N3CCC([C@H]4c5c(F)cccc5-c5cncn54)CC3)cc2)cn1" show?
(A) 8930

----------
Assay: Tissue distribution of SHR9146 in mice after oral gavage of 40 mg/kg
Type: in vivo, ICR mice
Conditions: female, ICR, mouse, ovary, po, 40 mg/kg, female, 6 h, 40 mg/kg oral gavage, Mean (n=3); read-out: SHR9146 concentration in Ovary
Assay Metric: concentration at 6 h (ng/g)
Give bare numbers, in ng/g.

(Q) Bench note: what concentration at 6 h did "OCCn1cc(-c2ccc(N3CCC([C@H]4c5c(F)cccc5-c5cncn54)CC3)cc2)cn1" show?
(A) 704

----------
Assay: Tissue distribution of SHR9146 in mice after oral gavage of 40 mg/kg
Type: in vivo, ICR mice
Conditions: male, ICR, mouse, skeletal muscle, po, 40 mg/kg, male, 6 h, 40 mg/kg oral gavage, individual mice; read-out: SHR9146 concentration in Skeletal muscle
Assay Metric: concentration at 6 h (ng/g)
Numbers only, in ng/g.

(Q) Bench note: what concentration at 6 h did OCCn1cc(-c2ccc(N3CCC([C@H]4c5c(F)cccc5-c5cncn54)CC3)cc2)cn1 [SHR9146] show?
(A) 70

----------
Assay: Tissue distribution of SHR9146 in mice after oral gavage of 40 mg/kg
Assay type: in vivo, ICR mice
Settings: female, ICR, mouse, liver, po, 40 mg/kg, female, 1 h, 40 mg/kg oral gavage, individual mice; read-out: SHR9146 concentration in Liver
Method: ICR mice with body weight 16–26 g were supplied by Shanghai Lingchang Biotechnology Co., Ltd. (animal breeding license number SCXK (Shanghai) 2013-0018) and housed at Shanghai Institute of Materia Medica, Chinese Academy of Sciences [animal use license number SYXK (Shanghai) 2015-0027]. The mice used in this study were fasted overnight for 12 h but had free access to water. Food was supplied 4 h post-dose. […]
Assay Metric: concentration at 1 h (ng/g)
Numbers only, in ng/g.

(Q) Bench note: what concentration at 1 h did "OCCn1cc(-c2ccc(N3CCC([C@H]4c5c(F)cccc5-c5cncn54)CC3)cc2)cn1" show?
(A) 22800

----------
Assay: Plasma pharmacokinetics of SHR9146 in mice (LC-MS/MS, non-compartmental analysis)
Type: in vivo, ICR mice
Conditions: both sexes, ICR, mouse, plasma, intravenous, 5 mg/kg, 5 mg/kg i.v.; 1 h; read-out: plasma drug concentration, individual mice #1-#6
Assay Metric: concentration at 1 h (ng/mL)
Numbers only, in ng/mL.

(Q) Bench note: what concentration at 1 h did "OCCn1cc(-c2ccc(N3CCC([C@H]4c5c(F)cccc5-c5cncn54)CC3)cc2)cn1" show?
(A) 2450
